# Tested on: Escherichia coli TOP10;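 note: peptides expressed intracellularly from a pBAD plasmid library in pooled LB shake-flask culture, induced with 0.3% L-arabinose, DNA abundance read by NGS, three biological replicates, DESeq2 with apeglm shrinkage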
# ASSAY PROTOCOL: shrunken log2 fold change of peptide-encoding DNA abundance (4.5 h post-induction vs induction); higher = less antimicrobial activity (less host growth inhibition)
# CONDITION: time post-induction: 4.5 h; library: site-saturation at positions 5, 18, 19, 20
PARAMETER MEASURED: shrunken log2 fold change

Solved entries (count: 6):
RRIRHRPPRLPRPRPRPCETPRP : -0.332
RRIRNRPPRLPRPRPRPYDLPRP : -0.166
RRIRVRPPRLPRPRPRPRTTPRP : 0.378
RRIRNRPPRLPRPRPRPVCEPRP : 1.34
RRIRFRPPRLPRPRPRPCIRPRP : -0.0335
RRIRKRPPRLPRPRPRPCTKPRP : 0.0518

Consider the sequence "RRIRLRPPRLPRPRPRPQQRPRP" and give its measured shrunken log2 fold change.
-0.299

Please look up its shrunken log2 fold change: "RRIRTRPPRLPRPRPRPRFRPRP"
0.158

# input sequence: "RRIRTRPPRLPRPRPRPVTNPRP" ; wanted: its shrunken log2 fold change
-0.0277
